These measurements were taken from patent EP2753335B1.

System: TNF
Test: In vitro chemical screen (Spectrum collection): TNF secretion by E. coli challenged THP-1 cells, DAS-ELISA
Format: cell-based, human
Settings: THP-1 cells, 10µM compound for 1 hour, then PFA-fixed E. coli (MOI 20) for 24 hours
Counter-ions that a name gives are not always drawn. Starred links: 1 amine or outer side, 2 acyl side, 3 side chain; linkers in the order of their positions; H or OH if unused. Positions of bridges follow the written chain, without caps; N, C: chain ends. Non-standard residues stand in square brackets, D forms with d. Residues, ends and D or L forms follow the SMILES beside them. Chains are numbered I, II in the order given. Actinocin(9to1) = Cc1c2oc3c(C)ccc(C(=O)[*:1])c3nc-2c(C(=O)[*:2])c(N)c1=O; NMeV = CN[C@H](C(=O)O)C(C)C; Sar = CNCC(=O)O
Reported property: Z score TNFa

1) CC(=O)Oc1c2c(c(CC=C(C)C)c3c1C(=O)C1=C[C@@H]4CC5C(C)(C)OC(C/C=C(\C)C(=O)O)(C4=O)[C@@]15O3)OC(C)(CCC=C(C)C)C=C2 (stereo partly drawn) = -3,056795183
2) O=C1C=CC(=O)c2ccccc21 = -2,77797604
3) CC1(C)C(=O)C=C[C@]2(C)[C@H]3CC[C@@]4(C)[C@H](c5ccoc5)OC(=O)[C@H]5O[C@]54[C@]3(C)C=C[C@@H]12 [7-desacetoxy-6,7-dehydrogedunin] = -2,517707805
4) COC(=O)[C@]1(C)CC[C@]2(C)CC[C@]3(C)C4=CC=C5C(=CC(=O)C(O)=C5C)[C@]4(C)CC[C@@]3(C)[C@@H]2C1 = -3,474946679
5) C=C1C(=O)O[C@@H]2C[C@@]3(C)CCC[C@H](C)C3=C[C@H]12 = -2,683894042
6) CCOc1ccc2nc3cc(N)ccc3c(N)c2c1 [Ethacridine lactate] = -2,218841761
7) C[n+]1cc2c3c(ccc2c2ccc4cc5c(cc4c21)OCO5)OCO3 [Sanguinarine sulfate] = -2,651620816
8) CCCCC(CC)CNC(=N)NC(=N)NCCCCCCNC(=N)NC(=N)NCC(CC)CCCC (stereo not drawn) [Alexidine hydrochloride] = -2,648173863
9) CCCCCCc1ccc(O)cc1O.Nc1c2ccccc2nc2ccccc12 = -3,10607388
10) COc1cc2oc3cc(OC)c(OC)c(CC=C(C)C)c3c(=O)c2c(OC)c1CC=C(C)C = -3,162805301
11) COc1cccc2c1C(=O)c1c(O)c3c(c(O)c1C2=O)C[C@@](O)(C(=O)CO)C[C@@H]3O[C@H]1C[C@H](N)[C@@H](O)[C@H](C)O1 [Epirubicin hydrochloride] = -4,474857631
12) Cc1cc(/C=C/c2ccc3cc(N(C)C)ccc3[n+]2C)c(C)n1-c1ccccc1 [Pyrvinium pamoate] = -2,268148981
13) CS(=O)(=O)CCCCN=C=S = -4,442389411
14) CC(C)=CCC[C@]1(C)C=Cc2c(O)c3c(c(CC=C(C)C)c2O1)O[C@]12C(=C[C@@H]4CC1C(C)(C)O[C@@]2(C/C=C(/C)C(N)=O)C4=O)C3=O [Gambogic acid amide] = -3,013926221
15) C[C@H](NCCc1ccc(O)cc1)[C@H](O)c1ccc(O)cc1 (racemic) [Ritodrine hydrochloriide] = -2,149761571
16) Cc1c(O)c(O)cc2c1CC=C1[C@@]2(C)CC[C@@]2(C)[C@@H]3C[C@](C)(C(=O)O)CC[C@]3(C)CC[C@]12C [Dihydrocelastrol] = -3,387513735
17) CC[C@@]1(O)C[C@H](O[C@H]2C[C@H](N(C)C)[C@H](O)[C@H](C)O2)c2c(cc3c(c2O)C(=O)c2c(O)cccc2C3=O)[C@H]1C(=O)OC [Aklavine hydrochloride] = -3,511681732
18) COc1cccc2c1C(=O)c1c(O)c3c(c(O)c1C2=O)C[C@@](O)(C(C)=O)C[C@@H]3O[C@H]1C[C@H](N)[C@H](O)[C@H](C)O1 = -3,007093086
19) COc1cccc2c1C(=O)c1c(O)c3c(c(O)c1C2=O)C[C@@](O)(C(=O)CO)C[C@@H]3O[C@H]1C[C@H](N)[C@H](O)[C@H](C)O1 = -4,071115136
20) CC[C@@]1(O)C[C@H](O[C@H]2C[C@H](N(C)C)[C@H](O)[C@H](C)O2)c2c(cc3c(c2O)C(=O)c2c(O)ccc(O)c2C3=O)[C@H]1C(=O)OC = -2,980583694
21) CC(C)=CCC[C@]1(C)C=Cc2c(O)c3c(c(CC=C(C)C)c2O1)O[C@]12C(=C[C@@H]4C[C@H]1C(C)(C)O[C@@]2(C/C=C(/C)C(=O)O)C4=O)C3=O = -3,862359373
22) Cc1c2oc3c(C)ccc(C(=O)N[C@@H]4C(=O)N[C@H](C(C)C)C(=O)N5CCC[C@H]5C(=O)N(C)CC(=O)N(C)[C@@H](C(C)C)C(=O)O[C@@H]4C)c3nc-2c(C(=O)N[C@@H]2C(=O)N[C@H](C(C)C)C(=O)N3CCC[C@H]3C(=O)N(C)CC(=O)N(C)[C@@H](C(C)C)C(=O)O[C@@H]2C)c(N)c1=O [Dactinomycin] (I: T[dV]P[Sar][NMeV] / II: T[dV]P[Sar][NMeV]; ester I:1-I:C, II:1-II:C; linker I:N-II:N via Actinocin(9to1)) = -4,13760156
23) C=C1C(=O)O[C@@H]2[C@H]3O[C@]3(C)CC/C=C(\C)CC[C@@H]12 [parthenolide] = -2,842267433
24) C=C1C(=O)O[C@H]2C[C@@H]1C(OC(C)=O)C/C(C)=C/CC/C(C)=C/CC[C@@]2(C)O (stereo partly drawn) [Crassin acetate] = -4,448741528

* * *

Test system: TNF
Test: In vitro chemical screen (Spectrum collection): TNF secretion by E. coli challenged THP-1 cells, DAS-ELISA
Assay type: cell-based, human
Conditions: THP-1 cells, 10µM compound for 1 hour, then PFA-fixed E. coli (MOI 20) for 24 hours
Structures can show the parent of a compound that is named as a salt.
Reported property: Z score TNFa

1) CC(=O)OCC(=O)[C@@]1(O)[C@@H](C)C[C@H]2[C@@H]3CCC4=CC(=O)C=C[C@]4(C)[C@@]3(F)[C@@H](O)C[C@@]21C [Betamethasone acetate] = -2,560814606
2) CCCCC(=O)O[C@]1(C(=O)CO)CC[C@H]2[C@@H]3CCC4=CC(=O)CC[C@]4(C)[C@H]3[C@@H](O)C[C@@]21C [Hydrocortisone valerate] = -2,794271243
3) CC(C)=CCCC1(C)C=Cc2c(O)c3c(c(CC=C(C)C)c2O1)OC12C(=CC4CC1C(C)(C)OC2(C/C=C(/C)C(=O)O)C4O)C3=O (stereo not drawn) [Dihydrogambogic acid] = -2,488781431
4) CC(C)=CC1C(C(=O)OCc2cccc(Oc3ccccc3)c2)C1(C)C (stereo not drawn) = -2,810792588
5) CC1=C(O)C(=O)C=C2C1=CC=C1[C@@]2(C)CC[C@@]2(C)[C@@H]3C[C@](C)(C(=O)O)CC[C@]3(C)CC[C@]12C = -2,941287145
6) O=C1c2c(O)ccc(O)c2C(=O)c2c(NCCNCCO)ccc(NCCNCCO)c21 [Mitoxanthrone hydrochloride] = -2,562729474
7) C[C@@H]1C[C@H]2[C@@H]3CCC4=CC(=O)C=C[C@]4(C)[C@@]3(F)[C@@H](O)C[C@]2(C)[C@H]1C(=O)CO = -2,417754689
8) COC1=CC(=O)C(O)=C/C1=C\C=C\c1ccccc1 = -3,829374842
9) C[C@]12C=CC(=O)C=C1CC[C@@H]1[C@@H]2[C@@H](O)C[C@@]2(C)[C@H]1CC[C@]2(O)C(=O)COC(=O)CCC(=O)O [Prednisolone hemisuccinate] = -2,72427413
10) C[C@H]1CC[C@]2(NC1)O[C@H]1C[C@H]3[C@@H]4CC[C@H]5C[C@@H](O[C@@H]6O[C@H](CO)[C@H](O[C@@H]7O[C@H](CO)[C@@H](O)[C@H](O[C@@H]8OC[C@@H](O)[C@H](O)[C@H]8O)[C@H]7O[C@@H]7O[C@H](CO)[C@@H](O)[C@H](O)[C@H]7O)[C@H](O)[C@H]6O)CC[C@]5(C)[C@H]4CC[C@]3(C)[C@H]1[C@@H]2C = -4,440219344
11) CC(=O)O[C@@H]1C[C@@]2(C)[C@H](c3ccoc3)C[C@H]3O[C@]32[C@]2(C)C(=O)C(O)=C3C(C)(C)C(=O)C=C[C@]3(C)[C@@H]12 = -2,834385142
12) S=C=NCc1ccccc1 [Benzyl isothiocyanate] = -2,908582737
